Here the recorded % decrease in ThT fluorescence is given for each entry.
System Name: α-synuclein (UniProt P37840 1-140); also: test concentration or dose not given here
Assay Remarks: cell-based or functional assay
Non-standard residues stand in square brackets, D forms with d.
Give me the value, and tack the unit on after it.

Use these answered entries as a reference point.
[[record]]
binder = "Ac-[dQ][dP][dS][dV][dL][dI]-NH2 (SMILES CC[C@@H](C)[C@@H](NC(=O)[C@@H](CC(C)C)NC(=O)[C@H](NC(=O)[C@@H](CO)NC(=O)[C@H]1CCCN1C(=O)[C@@H](CCC(N)=O)NC(C)=O)C(C)C)C(N)=O) [ZP-0207]"
measurement_type = "% decrease in ThT fluorescence"
result = "5.5%"

[[record]]
binder = "Ac-[dH][dH][dT][dI][dV][dK]-NH2 (SMILES CC[C@@H](C)[C@@H](NC(=O)[C@H](NC(=O)[C@@H](Cc1c[nH]cn1)NC(=O)[C@@H](Cc1c[nH]cn1)NC(C)=O)[C@H](C)O)C(=O)N[C@@H](C(=O)N[C@H](CCCCN)C(N)=O)C(C)C) [ZP-0179]"
measurement_type = "% decrease in ThT fluorescence"
result = "0.6%"

[[record]]
binder = "Ac-[dH][dH][dV][dI][dV][dA]-NH2 (SMILES CC[C@@H](C)[C@@H](NC(=O)[C@H](NC(=O)[C@@H](Cc1c[nH]cn1)NC(=O)[C@@H](Cc1c[nH]cn1)NC(C)=O)C(C)C)C(=O)N[C@@H](C(=O)N[C@H](C)C(N)=O)C(C)C) [ZP-0158]"
measurement_type = "% decrease in ThT fluorescence"
result = "15.1%"

[[record]]
binder = "H-[dQ][dY][dT][dV][dL][dI]-NH2 (SMILES CC[C@@H](C)[C@@H](NC(=O)[C@@H](CC(C)C)NC(=O)[C@H](NC(=O)[C@H](NC(=O)[C@@H](Cc1ccc(O)cc1)NC(=O)[C@H](N)CCC(N)=O)[C@H](C)O)C(C)C)C(N)=O) [ZP-0221]"
measurement_type = "% decrease in ThT fluorescence"
result = "24.7%"

[[record]]
binder = "Ac-[dH][dH][dT][dL][dV][dV]-NH2 (SMILES CC(=O)N[C@H](Cc1c[nH]cn1)C(=O)N[C@H](Cc1c[nH]cn1)C(=O)N[C@@H](C(=O)N[C@H](CC(C)C)C(=O)N[C@@H](C(=O)N[C@@H](C(N)=O)C(C)C)C(C)C)[C@H](C)O) [ZP-0186]"
measurement_type = "% decrease in ThT fluorescence"
result = "30.7%"


In the following, a different binder is considered.
Req: What value of % decrease in ThT fluorescence has been reported for the following binder? Ac-[dH][dH][dV][dV][dV][dA]-NH2 (SMILES CC(=O)N[C@H](Cc1c[nH]cn1)C(=O)N[C@H](Cc1c[nH]cn1)C(=O)N[C@@H](C(=O)N[C@@H](C(=O)N[C@@H](C(=O)N[C@H](C)C(N)=O)C(C)C)C(C)C)C(C)C) [ZP-0159]
Resp: 19.8%
